experiment: Phase 1/2 clinical study: pharmacokinetics; assay type: in vivo, human; conditions: human, plasma, oral, 75 mg, Cycle 1 Day 15; 75 mg QD; geometric mean; read-out: Vz/F
Observable: Vd/F
Please report the result as a number followed by the unit.

Exam item: Given the compound CCn1ncc2c1-c1cnc(N)c(c1)O[C@H](C)c1cc(F)ccc1-c1nn(C)nc1C2 , what is its reported Vd/F?
Marked response: 350 L

---

experiment: Phase 1/2 clinical study: pharmacokinetics; format: in vivo, human; conditions: human, plasma, oral; Cycle 1 Day 1; 75 mg QD; geometric mean
Observable: AUC(0-t) (µg·h/mL)
# number only, unit µg·h/mL dropped from output

Exam item: Given the compound CCn1ncc2c1-c1cnc(N)c(c1)O[C@H](C)c1cc(F)ccc1-c1nn(C)nc1C2 [Compound 1] , what is its reported AUC(0-t)?
Marked response: 4
